I'd be grateful if you could share measured Emax for these entries.
Target: DCN1 protein (Homo sapiens (Human), UniProt Q96GG9)
Sequence (Q96GG9 whole entry): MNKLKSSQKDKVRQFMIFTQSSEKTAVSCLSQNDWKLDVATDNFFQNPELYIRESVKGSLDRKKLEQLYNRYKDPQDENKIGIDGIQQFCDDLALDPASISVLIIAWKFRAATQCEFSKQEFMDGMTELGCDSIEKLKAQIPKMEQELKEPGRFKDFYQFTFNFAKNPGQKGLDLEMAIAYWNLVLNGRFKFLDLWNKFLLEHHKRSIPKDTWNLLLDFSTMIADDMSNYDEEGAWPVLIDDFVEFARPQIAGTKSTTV
Test: Intact protein MS analysis with the RapidFire-TOF system (covalent adduct formation)
Assay type: binding
Conditions: 400 nM DCN1, incubated at room temperature for 3 hours

Emax for DCN1 protein (Homo sapiens (Human), UniProt Q96GG9) with input C=C(CN1CCC(F)(F)C1)C(=O)NCc1cccc([C@@H]2c3cnn(-c4ccccc4)c3N(CC)C(=O)[C@H]2NC(=O)c2cccc(C(F)(F)F)c2)c1 equals 80 to 100%

// assay DCN1 protein (Homo sapiens (Human), UniProt Q96GG9), entry C=C(CN(C)C1COC1)C(=O)NCc1cccc([C@@H]2c3cnn(-c4ccccc4)c3N(CC)C(=O)[C@H]2NC(=O)c2cccc(C(F)(F)F)c2)c1 , Emax value = 80 to 100%

Readout Emax for C/C=C/C(=O)Nc1ccccc1[C@H]1c2cnn(-c3ccccc3)c2N(CC)C(=O)[C@@H]1NC(=O)c1cccc(C(F)(F)F)c1 (racemic) , test system DCN1 protein (Homo sapiens (Human), UniProt Q96GG9), was 0 to 30%

DCN1 protein (Homo sapiens (Human), UniProt Q96GG9) Emax of C=C(C)C(=O)Nc1cccc([C@H]2c3c(C)nn(-c4ccccc4)c3N(CC)C(=O)[C@H]2NC(=O)c2cccc(C(F)(F)F)c2)c1 (racemic) is 0 to 30%

Reported DCN1 protein (Homo sapiens (Human), UniProt Q96GG9) Emax for item C=C(CN1CC(F)(F)C1)C(=O)NCc1cccc([C@@H]2c3cnn(-c4ccccc4)c3N(CC)C(=O)[C@H]2NC(=O)c2cccc(C(F)(F)F)c2)c1 was 80 to 100%

The compound CCN1C(=O)[C@@H](NC(=O)c2cccc(C(F)(F)F)c2)[C@@H](c2cccc(NC(=O)C3=CCCC3)c2)c2c(C)nn(-c3ccccc3)c21 (racemic) , tested on DCN1 protein (Homo sapiens (Human), UniProt Q96GG9), showed Emax of 0 to 30%

Readout Emax for C/C=C(\CN1CCN(C2COC2)CC1)C(=O)Nc1cccc([C@@H]2c3cnn(-c4ccccc4)c3N(CC)C(=O)[C@H]2NC(=O)c2ccn(C3CC3)n2)c1 , test system DCN1 protein (Homo sapiens (Human), UniProt Q96GG9), was 80 to 100%

Hey, DCN1 protein (Homo sapiens (Human), UniProt Q96GG9) data for CCN1C(=O)[C@H](NC(=O)c2cccc(C(F)(F)F)c2)[C@@H](c2ccccc2NC(=O)/C=C/CN2CCOCC2)c2cnn(-c3ccccc3)c21 (racemic) : Emax came out at 0 to 30%
